# Tested on: CRL-7250
# method_notes: Cytotoxic Profiling of Annotated Libraries Using Quantitative High-Throughput Screening (AID 1296008); note: % is set by controls: 0 for no effect and ±100 for the full control effect; nearly all actives have a fitted effect of over 60% in size
# details: Five cell lines viability, CellTiter-Glo ATP luminescence, 48-72 h; hits give low values
# Experimental: Cell-based phenotypic screening is a commonly used approach to discover biological pathways, novel drug targets, chemical probes and high-quality hit-to-lead molecules. […] A pintool (Kalypsys) was used to transfer 23 nL of compound solution to the 1536-well assay plates. […] Plates were left at room temperature for 10 min before imaging the ATP-coupled luminescence using a ViewLux microplate imager (PerkinElmer, Waltham, MA).
Inconclusive results are not listed.
Consider the following molecules; for each one, report its max response.
One number for each entry, in %.

In the examples that follow, each entry is paired with its recorded max response.
{"columns": ["molecule", "max response [%]"],
 "data": [
  ["COC(=O)c1cc(Cl)ccc1OC", -7.71],
  ["CCOC(=O)NNc1nncc2ccccc12", -0.257],
  ["CCc1cc(S(=O)(=O)O)c2cc(C(C)C)cccc1-2", 4.56],
  ["CCCCCCCC(=O)[O-].CCCCCCCC(=O)[O-].[Zn+2]", -4.35],
  ["CCCOc1ccc2c(c1)CC[C@@H]1[C@@H]2CC[C@]2(C)C(OC)CC[C@@H]12 (stereo partly specified)", -5.35]
]}

Now examine the next entry.
With CRL-7250 as the test system, provide measured max response for this molecule: CCOc1c(N2CCOCC2)cnn(C)c1=O
-1.71
